# experimentalDetails: in vitro
# studyConditions: human, hela cells, % viability
Examples of molecules with documented viability at 28.5 h, 10 µM follow.
Answer with a number only, understood to be in %.

Here are 10 molecules together with their reported answers.
molecule	measureName	displayUnit	recordedNumber
Cn1nc(C(=O)Nc2ccccc2Oc2ccc(F)cc2)ccc1=O	viability at 28.5 h, 10 µM	%	91
OC1CCC(Nc2cncc(-c3cccc(F)c3)n2)CC1 (stereo not shown)	viability at 28.5 h, 10 µM	%	97.8
Cc1cc(C)c(C)c(S(=O)(=O)Nc2ccc(C(=O)NCc3ccccn3)cc2)c1C	viability at 28.5 h, 10 µM	%	85.8
CN(Cc1ccncc1)C(=O)CCn1c(C(F)F)cc2cccnc21	viability at 28.5 h, 10 µM	%	81
CCCC(=O)c1ccc(S(=O)(=O)N2CCCN(Cc3c[nH]nc3-c3ccc(F)cc3)CC2)cc1	viability at 28.5 h, 10 µM	%	121
O=C(NC1CC1)c1nn(-c2ncccn2)c2ccccc12	viability at 28.5 h, 10 µM	%	88
CN1CCC(N(C)C(=O)NCc2cccc3ccccc23)C1 (stereo not shown)	viability at 28.5 h, 10 µM	%	89.2
c1ccc2cc(CCN3CCC(Oc4cncc(OCCN5CCOCC5)n4)C3)ccc2c1 (stereo not shown)	viability at 28.5 h, 10 µM	%	92.7
CN(C)CCNC(=O)c1cccc(-c2cncc(N3CCN(c4ccncc4)CC3)n2)c1	viability at 28.5 h, 10 µM	%	100
COc1ccc([N+](=O)[O-])c(Sc2cccs2)n1	viability at 28.5 h, 10 µM	%	84.9

Any idea what viability at 28.5 h, 10 µM was measured for O=C(C1=C(O)C(=O)N(CCN2CCOCC2)C1c1ccccn1)c1cccs1 (stereo not shown) ?
99.3

###

# experimentalDetails: in vitro
# studyConditions: human, hela cells, % viability
Examples of compounds with documented viability at 28.5 h, 10 µM follow.
Answer with a number only, understood to be in %.

Here are 3 compounds together with their reported answers.
compound	displayUnit	viability at 28.5 h, 10 µM
CCc1nc2ccc(C(=O)N3CCN(C)CC3)cn2c1N(C)Cc1nccn1C [CBK146299]	%	115
CC1=CC(C)C(CNCCN2CCNCC2)C(C)C1 (centres unmarked) [CBK262832]	%	90
CCN(CC(=O)O)S(=O)(=O)c1cc(C)ccc1OC [CBK268694]	%	98.7

Any idea what viability at 28.5 h, 10 µM was measured for Cc1cc(O)ccc1Nc1cc(-c2ccccc2N(C)C)ncn1 [CBK091051] ?
104

Now the compound CC(NC(=O)CCc1cn(C)c2ccccc12)c1ccccn1 (centres unmarked) [CBK281889]
93.1

Now the compound CCOC(=O)c1cnn(C2CCCN(Cc3cccs3)C2)c1 (centres unmarked) [CBK305121]
99.5

Now the compound Cc1cccc(-c2csc3c(=O)[nH]c(N4CCC(C(=O)N5CCOCC5)CC4)nc23)c1 [CBK215644]
89.7

###

# experimentalDetails: in vitro
# studyConditions: human, hela cells, % viability
Examples of compounds with documented viability at 28.5 h, 10 µM follow.
Answer with a number only, understood to be in %.

Here are 3 compounds together with their reported answers.
compound	viability at 28.5 h, 10 µM (%)
O=C1c2cccc3cccc(c23)C(=O)N1CCCSc1nnc[nH]1 [CBK268894]	66.4
Cc1nc(C(Cc2ccsc2)NC(=O)c2cnn(C)c2)sc1C (centres unmarked) [CBK284779]	104
COc1ccc(C(=O)C2=C(O)C(=O)N(CCCN(C)C)C2c2ccncc2)cc1Cl (centres unmarked) [CBK266529]	109

Any idea what viability at 28.5 h, 10 µM was measured for c1ccc(CCN2CCC(c3nc(-c4ccccc4)no3)CC2)cc1 [CBK051454] ?
89.8

Now the compound Cc1ccc(C(=O)CCC(=O)CCC(=O)O)cc1 [CBK265546]
95.6

###

Examples of compounds with documented viability at 28.5 h, 10 µM follow.
# experimentalDetails: in vitro
# studyConditions: human, hela cells, % viability
Answer with a number only, understood to be in %.

compound	recordedNumber
Cc1nnnn1-c1cc(NC(=O)NCCCc2nc[nH]n2)ccc1F	87.7
O=C(O)C1CCN(S(=O)(=O)c2ccc(F)cc2)CC1	102
O=C(CN(C1CCCCC1)S(=O)(=O)c1ccc(Br)cc1)NCc1ccccn1	93.6
Cc1ccc2nc(NC(=O)C3COc4ccccc4O3)sc2c1 (centres unmarked)	103

Now take the following compound into account.
Any idea what viability at 28.5 h, 10 µM was measured for `Cn1nc(-c2ccccc2)cc1[C@H]1CN2CC[C@H]1C[C@@H]2CNC(=O)N1CCOCC1` ?
113

###

Examples of compounds with documented viability at 28.5 h, 10 µM follow.
# experimentalDetails: in vitro
# studyConditions: human, hela cells, % viability
Answer with a number only, understood to be in %.

Here are 3 compounds together with their reported answers.
compound	displayUnit	recordedNumber
c1ccc(CN2CCN(CCN3CCn4c3nc3ccccc34)CC2)cc1 [CBK265472B]	%	97.5
COCc1nnc(NS(=O)(=O)c2ccc(Br)cc2)s1	%	115
O=C(/C=C/c1ccco1)NC(=S)Nc1ccc(O)c(-c2nc3ccccc3s2)c1	%	85.7

Any idea what viability at 28.5 h, 10 µM was measured for `Cc1nnc(Sc2nc3ccccc3nc2C(F)(F)F)s1` ?
94.8

Now the compound `Cc1nc2c(C(=O)NCC(F)(F)F)cnn2c(C)c1Cc1cccc(C#N)c1`
91.6

###

# experimentalDetails: in vitro
# studyConditions: human, hela cells, % viability
measureName: viability at 28.5 h, 10 µM (%)
Answer with a number only, understood to be in %.

compound	viability at 28.5 h, 10 µM (%)
CC(=O)Nc1cccc(NC(=O)N(CCC#N)C2CCCCC2)c1	91.9
Oc1c(C(Nc2cccnc2)c2ccccc2OCc2ccccc2)ccc2cccnc12 (centres unmarked)	71.5
Nc1nc(/C=C/c2cccs2)nc(-c2ccccc2O)n1	105
Cc1nc(-c2cc3c(s2)CCN(CC(O)COCc2ccco2)C3)cs1 (centres unmarked)	89.4

Now take the following compound into account.
Any idea what viability at 28.5 h, 10 µM was measured for `CCn1nc(C(C)C)cc1C(=O)NCCN1CCC(C)CC1` ?
85.6

###

# experimentalDetails: in vitro
# Parameters: Viability of infected HeLa host cells, resazurin conversion, bulk resorufin fluorescence relative to DMSO
# studyConditions: human, hela cells; bulk resorufin, mean of 2
Examples of compounds with documented viability at 28.5 h, 5 µM follow.
Answer with a number only, understood to be in %.

compound	viability at 28.5 h, 5 µM (%)
CC(C)(C)CC(C)(C)NC(=S)Nc1ccc2nc(-c3ccccn3)c(-c3ccccn3)nc2c1 [CBK265118]	106
Cc1cc(C)c2nc(-c3ccccn3)cc(C(=O)Nc3ccc(S(=O)(=O)Nc4onc(C)c4C)cc3)c2c1 [CBK267775]	94.8
Cc1cccc(-c2ccc(CC3(C(N)=O)CCN(C(=O)CCc4ccccc4)CC3)cc2)c1 [CBK285796]	96.9
CCOc1ccc2nc(NC(=N)N)nc(C)c2c1 [CBK010384C]	102
COc1ccc(-c2csc(/C(C#N)=C/Nc3ccc(S(=O)(=O)Nc4nccs4)cc3)n2)cc1 [CBK262374]	95.6

Any idea what viability at 28.5 h, 5 µM was measured for CC(C)(CN)CN(Cc1ccccc1Br)C(=O)NC(c1ccccc1)c1ccccc1 [CBK002488C] ?
93.1

Now the compound O=S(=O)(Nc1nccs1)c1ccc(Nc2ncnc3ccccc23)cc1 [CBK269487C]
99

Now the compound CC(=O)NC[C@H]1CN(c2ccc3c(c2)CCSC3)C(=O)O1 [CBK018505]
101

###

# experimentalDetails: in vitro
# studyConditions: human, hela cells, % viability
Examples of molecules with documented viability at 28.5 h, 10 µM follow.
Answer with a number only, understood to be in %.

Any idea what viability at 28.5 h, 10 µM was measured for `CC(=O)c1cccc(-c2cnc(Nc3ccc(N4CCOCC4)cc3)c3nccn23)c1` ?
91.5

###

Examples of molecules with documented viability at 28.5 h, 10 µM follow.
# experimentalDetails: in vitro
# studyConditions: human, hela cells, % viability
Answer with a number only, understood to be in %.

Any idea what viability at 28.5 h, 10 µM was measured for Cc1nn2c(c1-c1ccno1)CCCCC2 [CBK007505] ?
97.6

###

Examples of compounds with documented viability at 28.5 h, 10 µM follow.
# experimentalDetails: in vitro
# studyConditions: human, hela cells, % viability
Answer with a number only, understood to be in %.

Any idea what viability at 28.5 h, 10 µM was measured for O=[N+]([O-])c1ccccc1S(=O)(=O)N1CCN(c2ccnc3cc(Cl)ccc23)CC1 [CBK267271] ?
92.1

Now the compound C=CCNc1nccnc1-c1ccccc1OC [CBK036831]
106

Now the compound CCc1ccc(-c2noc(CSc3n[nH]c(=O)n3CCCOC)n2)cc1 [CBK295656]
95.1
